test-target: Sodium-dependent noradrenaline transporter (Homo sapiens, UniProt P23975)
Sequence (P23975 whole entry): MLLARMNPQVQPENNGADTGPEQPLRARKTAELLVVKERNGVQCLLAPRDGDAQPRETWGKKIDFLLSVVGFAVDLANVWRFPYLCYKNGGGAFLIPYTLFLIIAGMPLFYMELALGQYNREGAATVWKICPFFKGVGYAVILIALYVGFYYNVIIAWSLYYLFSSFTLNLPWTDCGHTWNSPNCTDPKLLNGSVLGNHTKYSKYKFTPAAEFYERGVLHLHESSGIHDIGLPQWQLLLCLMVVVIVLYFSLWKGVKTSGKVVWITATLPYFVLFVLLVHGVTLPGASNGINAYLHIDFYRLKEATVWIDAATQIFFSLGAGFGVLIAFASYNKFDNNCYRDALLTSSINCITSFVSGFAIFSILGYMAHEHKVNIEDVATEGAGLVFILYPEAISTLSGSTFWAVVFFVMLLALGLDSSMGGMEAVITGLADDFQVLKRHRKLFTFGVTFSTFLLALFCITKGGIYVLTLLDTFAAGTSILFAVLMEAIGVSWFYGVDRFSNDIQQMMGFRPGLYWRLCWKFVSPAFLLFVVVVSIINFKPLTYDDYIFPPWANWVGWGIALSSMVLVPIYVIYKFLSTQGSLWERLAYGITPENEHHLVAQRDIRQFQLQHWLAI
test-details: Displacement of [125I]RTI55 from human NET expressed in COS1 cell membrane
Format: cell membranes, COS-1
measurement-type: pKi
Value format note: pKi is -log10 of concentration (mol/L); just state the number.

Below, each entry is followed by its recorded pKi result.
>  <molecule>
COC(=O)[C@@H]1CCCCC[C@@H]1c1ccc(-c2ccccc2)cc1

>  <readout-number>
4.29

$$$$
>  <molecule>
COC(=O)C1=C(c2ccc(C(C)(C)C)cc2)CCC1

>  <readout-number>
3.10

$$$$

Which measured pKi value corresponds to COC(=O)C1=C(c2ccc3ccccc3c2)CCC1 ?
4.41

Continue with COC(=O)C1=C(c2ccccc2)CCCC1
2.60

Continue with COC(=O)C1=C(c2cccc(Cl)c2)CCCCC1
4.07

Continue with COC(=O)[C@@H]1CCCC[C@@H]1c1ccc(-c2ccccc2)cc1
3.18

Continue with COC(=O)[C@@H]1CN(C)CC[C@@H]1c1ccc(I)cc1 (racemic)
6.07

* * *

test-target: UniProt P31645
Sequence (P31645 whole entry): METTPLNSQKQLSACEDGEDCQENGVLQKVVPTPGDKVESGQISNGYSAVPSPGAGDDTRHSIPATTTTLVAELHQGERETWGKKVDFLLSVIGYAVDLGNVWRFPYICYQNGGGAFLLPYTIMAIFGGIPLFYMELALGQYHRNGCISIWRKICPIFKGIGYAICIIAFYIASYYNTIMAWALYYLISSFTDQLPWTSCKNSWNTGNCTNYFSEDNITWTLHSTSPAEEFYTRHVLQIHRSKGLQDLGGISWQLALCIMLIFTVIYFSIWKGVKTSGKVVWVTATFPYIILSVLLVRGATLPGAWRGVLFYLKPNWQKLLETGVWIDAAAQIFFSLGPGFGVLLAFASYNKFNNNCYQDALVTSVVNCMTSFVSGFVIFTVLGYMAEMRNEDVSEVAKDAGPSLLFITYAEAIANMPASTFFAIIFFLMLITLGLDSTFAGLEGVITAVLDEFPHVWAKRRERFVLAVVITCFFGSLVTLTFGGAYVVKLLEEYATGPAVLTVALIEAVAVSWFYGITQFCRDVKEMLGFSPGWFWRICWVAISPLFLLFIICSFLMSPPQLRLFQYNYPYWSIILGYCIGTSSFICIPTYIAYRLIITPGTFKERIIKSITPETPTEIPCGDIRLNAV
test-details: Inhibition of [3H]SER uptake in human SERT expressed in COS1 cell membrane
Type: functional, cell-based, COS-1
measurement-type: Ki (µM)
Field: numeric (µM). Do not append units.

Which measured Ki value corresponds to COC(=O)[C@H]1[C@@H](c2ccc(I)cc2)C[C@H]2CC[C@@H]1N2C ?
0.004

Continue with COC(=O)C1=C(c2cccc(N)c2)CCC1
2900

Continue with COC(=O)C1=C(c2ccc(C(C)=O)cc2)CCC1
1160

* * *

The entries below come with measured pKi values attached.
test-target: Sodium-dependent dopamine transporter (Homo sapiens)
test-details: Displacement of [125I]RTI55 from human DAT expressed in COS1 cell membrane
Format: cell membranes, COS-1
Value format note: pKi is -log10 of concentration (mol/L); just state the number.

Below, each entry is followed by its recorded pKi result.
>  <molecule>
COC(=O)C1=C(c2ccc(OC)cc2)CCC1

>  <test-target>
Sodium-dependent dopamine transporter (Homo sapiens)

>  <pKi>
3.85

$$$$
>  <molecule>
COC(=O)C1=C(c2ccccc2)CCCC1

>  <test-target>
Sodium-dependent dopamine transporter (Homo sapiens)

>  <pKi>
3.20

$$$$
>  <molecule>
COC(=O)C1=C(c2cccc(N)c2)CCC1

>  <test-target>
Sodium-dependent dopamine transporter (Homo sapiens)

>  <pKi>
3.06

$$$$
>  <molecule>
COC(=O)[C@@H]1CN(C)CC[C@H]1c1ccccc1 (racemic)

>  <test-target>
Sodium-dependent dopamine transporter (Homo sapiens)

>  <pKi>
4.76

$$$$

Which measured pKi value corresponds to COC(=O)C1=C(c2ccc([N+](=O)[O-])cc2)CCC1 ?
5.18

Continue with COC(=O)C1=C(c2ccc(OC(F)(F)F)cc2)CCCC1
2.78

Continue with COC(=O)C1=C(c2ccc(C(C)(C)C)cc2)CCC1
3.52

Continue with COC(=O)C1=C(c2ccc(C(C)=O)cc2)CCC1
3.47

* * *

test-target: Sodium-dependent dopamine transporter (Homo sapiens, UniProt Q01959)
Sequence (Q01959 whole entry): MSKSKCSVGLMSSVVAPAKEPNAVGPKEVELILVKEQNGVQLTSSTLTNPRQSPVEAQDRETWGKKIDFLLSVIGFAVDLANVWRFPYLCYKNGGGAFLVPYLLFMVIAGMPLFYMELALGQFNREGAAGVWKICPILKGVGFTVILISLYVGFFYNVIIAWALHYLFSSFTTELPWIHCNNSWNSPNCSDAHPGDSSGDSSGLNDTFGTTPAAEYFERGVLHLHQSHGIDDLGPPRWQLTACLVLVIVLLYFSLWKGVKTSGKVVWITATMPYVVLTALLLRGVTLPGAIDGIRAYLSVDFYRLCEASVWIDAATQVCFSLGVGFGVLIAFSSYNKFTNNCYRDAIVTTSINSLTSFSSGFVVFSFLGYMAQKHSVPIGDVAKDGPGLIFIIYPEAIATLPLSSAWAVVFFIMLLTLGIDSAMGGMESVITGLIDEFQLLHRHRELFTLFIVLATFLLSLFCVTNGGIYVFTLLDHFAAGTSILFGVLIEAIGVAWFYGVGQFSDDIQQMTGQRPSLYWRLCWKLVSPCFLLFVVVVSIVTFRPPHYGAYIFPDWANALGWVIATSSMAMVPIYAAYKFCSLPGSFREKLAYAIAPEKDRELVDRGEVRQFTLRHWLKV
test-details: Displacement of [125I]RTI55 from human DAT expressed in COS1 cell membrane
Type: cell membranes, COS-1
measurement-type: pKi
Value format note: pKi is -log10 of concentration (mol/L); just state the number.

Below, each entry is followed by its recorded pKi result.
>  <molecule>
C/C=C/C1=C(c2ccc(Cl)c(Cl)c2)CCCC1

>  <measurement-type>
pKi

>  <readout-number>
4.96

$$$$
>  <molecule>
COC(=O)C1=C(c2ccc(Cl)cc2)CCCC1

>  <measurement-type>
pKi

>  <readout-number>
4.07

$$$$
>  <molecule>
COC(=O)C1=C(c2ccc(Cl)c(Cl)c2)CCC1

>  <measurement-type>
pKi

>  <readout-number>
5.72

$$$$

Which measured pKi value corresponds to COC(=O)C1=C(c2ccc(C(F)(F)F)cc2)CCCC1 ?
3.23

* * *

The entries below come with measured log10 of Ki values attached.
test-target: Sodium-dependent dopamine transporter (Homo sapiens, UniProt Q01959)
test-details: Displacement of [125I]RTI55 from human DAT expressed in COS1 cell membrane
Assay type: cell membranes, COS-1
// stored as log10 of Ki expressed in µM

Below, each entry is followed by its recorded log10 of Ki result.
>  <compound>
COC(=O)C1=C(c2ccc(O)cc2)CCCC1

>  <measurement-type>
log10 of Ki

>  <readout-number>
2.36

$$$$
>  <compound>
COC(=O)[C@@H]1CCCC[C@@H]1c1ccc(C(F)(F)F)cc1

>  <measurement-type>
log10 of Ki

>  <readout-number>
2.35

$$$$

Which measured log10 of Ki value corresponds to COC(=O)C1=C(c2ccc3ccccc3c2)CCCCC1 ?
2.59

Continue with COC(=O)[C@@H]1CCCC[C@@H]1c1ccc(C(C)(C)C)cc1
2.88

Continue with COC(=O)[C@@H]1CN(C)CC[C@@H]1c1ccc(Cl)c(Cl)c1 (stereo in doubt)
1.77

Continue with COC(=O)[C@@H]1CCCC[C@@H]1c1ccc(-c2ccccc2)cc1
2.92

Continue with COC(=O)C1=C(c2ccc(Cl)c(Cl)c2)CCCCC1
0.13

* * *

test-target: UniProt:Q01959
test-details: Displacement of [125I]RTI55 from human DAT expressed in COS1 cell membrane
Type: cell membranes, COS-1
measurement-type: Ki
Don't forget the unit after the number, please.

>  <query-smiles>
COC(=O)[C@@H]1CCCC[C@@H]1c1ccc(OC(F)(F)F)cc1

>  <Ki>
1180 µM

$$$$
>  <query-smiles>
COC(=O)[C@@H]1CCCCC[C@@H]1c1ccc(-c2ccccc2)cc1

>  <Ki>
313 µM

$$$$
>  <query-smiles>
COC(=O)c1ccccc1-c1ccc2ccccc2c1

>  <Ki>
4.06 µM

$$$$
>  <query-smiles>
COC(=O)C1=C(c2cccc([N+](=O)[O-])c2)CCCC1

>  <Ki>
239 µM

$$$$
>  <query-smiles>
COC(=O)C1=C(c2ccc3ccccc3c2)CCCC1

>  <Ki>
12 µM

$$$$

We now examine a further compound.
Which measured Ki value corresponds to COC(=O)C1=C(c2ccc(OC(F)(F)F)cc2)CCC1 ?
2650 µM
